- Test system: Saccharomyces cerevisiae BY4741 SeMeCo community
- assay.protocol: z-score of subpopulation abundance vs DMSO median, subpopulation auxotrophic for LUM; higher = larger share of this subpopulation than in DMSO controls
- conditions.used: 10 µM; 24 h; SM minimal medium; subpopulation (auxotrophy): LUM
Where a name gives a salt, the structure may show the parent alone.
Parameter: z-score of subpopulation abundance. Scope: all listed entries.

Would you please look over these solved cases?
molecule	endpoint.name	value.measured
CC(C)c1c(C(=O)Nc2ccccc2)c(-c2ccccc2)c(-c2ccc(F)cc2)n1CC[C@@H](O)C[C@@H](O)CC(=O)O [Atorvastatin]	z-score of subpopulation abundance	0.92
CO/N=C(\C(=O)N[C@@H]1C(=O)N2C(C(=O)O)=C(CSc3nnnn3C)CS[C@H]12)c1csc(N)n1 [Cefmenoxime hydrochloride]	z-score of subpopulation abundance	-0.46
Cc1c(-c2ccccc2)oc2c(C(=O)OCCN3CCCCC3)cccc2c1=O [Flavoxate HCl]	z-score of subpopulation abundance	1.06
COc1cc([C@@H]2c3cc4c(cc3[C@@H](O[C@@H]3O[C@@H]5CO[C@@H](c6cccs6)O[C@H]5[C@H](O)[C@H]3O)[C@H]3COC(=O)[C@H]23)OCO4)cc(OC)c1O [Teniposide]	z-score of subpopulation abundance	1.42
Nc1nc(=O)[nH]cc1F	z-score of subpopulation abundance	4.96
C=CCN1CCCC1CNC(=O)c1cc2nn[nH]c2cc1OC (stereo not given) [Alizapride HCl]	z-score of subpopulation abundance	0.44

Given "CCN1CCN(C(=O)N[C@@H](C(=O)N[C@@H]2C(=O)N3C(C(=O)O)=C(CSc4nnnn4C)CS[C@H]23)c2ccc(O)cc2)C(=O)C1=O" , respond with its z-score of subpopulation abundance.
0.47

Given "O=C1CCc2ccc(OCCCCN3CCN(c4cccc(Cl)c4Cl)CC3)cc2N1" , respond with its z-score of subpopulation abundance.
1.32

Given COC1C(O)CC(=O)OC(C)CC=CC=CC(OC2CCC(N(C)C)C(C)O2)C(C)CC(CC=O)C1OC1OC(C)C(OC2CC(C)(O)C(O)C(C)O2)C(N(C)C)C1O (stereo not given) , respond with its z-score of subpopulation abundance.
-0.43

Given "Cc1cccc(Nc2ccccc2C(=O)O)c1C" , respond with its z-score of subpopulation abundance.
-0.45

Given "COc1cc(C(C)=O)ccc1OCCCN1CCC(c2noc3cc(F)ccc23)CC1" , respond with its z-score of subpopulation abundance.
0.9

###

- Test system: Saccharomyces cerevisiae BY4741 SeMeCo community
- assay.protocol: z-score of subpopulation abundance vs DMSO median, subpopulation auxotrophic for HUM; higher = larger share of this subpopulation than in DMSO controls
- conditions.used: 10 µM; 24 h; SM minimal medium; subpopulation (auxotrophy): HUM
endpoint.name: z-score of subpopulation abundance
Lab note: record the figure alone, no unit after it.

Would you please look over these solved cases?
> print(dat)
                                   compound                             tested.system  value.measured
1  C[C@@H](c1nc(-c2ccc(C#N)cc2)cs1)[C@](O)(Cn1cncn1)c1cc(F)ccc1F [Isavuconazole]  Saccharomyces cerevisiae BY4741 SeMeCo community            10.4
2      CCC(=O)c1c(O)cc(O)cc1O [Flopropione]  Saccharomyces cerevisiae BY4741 SeMeCo community           -0.23
3  COc1c(N2CCNC(C)C2)c(F)cc2c(=O)c(C(=O)O)cn(C3CC3)c12 (centres undefined) [Gatifloxacin]  Saccharomyces cerevisiae BY4741 SeMeCo community            0.51

// moving on: another record for z-score of subpopulation abundance
State measured z-score of subpopulation abundance of the compound C[C@@H]1CN(c2c(F)c(N)c3c(=O)c(C(=O)O)cn(C4CC4)c3c2F)C[C@H](C)N1 [Sparfloxacin] with Saccharomyces cerevisiae BY4741 SeMeCo community.
-0.04

###

Parameter: mean cell size. Scope: all listed entries.
- Test system: Saccharomyces cerevisiae BY4741 SeMeCo community
- assay.protocol: mean cell size (pixel area) (pixels); higher = larger cells
- conditions.used: 10 µM; 24 h; SM minimal medium
Counter-ions that a name gives are not always drawn.
Lab note: record the figure alone, no unit after it.

Would you please look over these solved cases?
compound	mean cell size
Cc1nc(=O)c2cc(CN(C)c3ccc(C(=O)N[C@@H](CCC(=O)O)C(=O)O)s3)ccc2[nH]1 [Raltitrexed]	13.1
O=C1c2cccc3c2[C@H](CCC3)CN1[C@@H]1CN2CCC1CC2 [Palonosetron HCl]	11.9
COc1ccccc1OCC(O)CN1CCN(CC(=O)Nc2c(C)cccc2C)CC1 (stereo unspecified) [Ranolazine]	12.5

// moving on: another record for mean cell size
Given CC1(C)[C@H](C(=O)O)N2C(=O)C[C@H]2S1(=O)=O [Sulbactam] , respond with its mean cell size.
12.3

###

Parameter: z-score of subpopulation abundance. Scope: all listed entries.
- System: Saccharomyces cerevisiae BY4741 SeMeCo community
- assay.protocol: z-score of subpopulation abundance vs DMSO median, subpopulation auxotrophic for L; higher = larger share of this subpopulation than in DMSO controls
- conditions.used: 10 µM; 24 h; SM minimal medium; subpopulation (auxotrophy): L
Counter-ions that a name gives are not always drawn.

> print(dat)
                                   molecule                       endpoint.name  value.measured
1  COc1ccc([C@@H]2Sc3ccccc3N(CCN(C)C)C(=O)[C@@H]2OC(C)=O)cc1 [Diltiazem HCl]  z-score of subpopulation abundance             0.4
2  CC(NCCC(c1ccccc1)c1ccccc1)c1ccccc1 (centres undefined) [Fendiline hydrochloride]  z-score of subpopulation abundance            0.03
3  COc1ccnc(C[S+]([O-])c2nc3cc(-n4cccc4)ccc3[nH]2)c1C (centres undefined) [Ilaprazole]  z-score of subpopulation abundance            2.44

Given C=CCCCCCCCCC(=O)[O-].C=CCCCCCCCCC(=O)[O-].[Zn+2] [Zinc Undecylenate] , respond with its z-score of subpopulation abundance.
-1.01

###

- System: Saccharomyces cerevisiae BY4741 SeMeCo community
- assay.protocol: z-score of subpopulation abundance vs DMSO median, subpopulation auxotrophic for HU; higher = larger share of this subpopulation than in DMSO controls
- conditions.used: 10 µM; 24 h; SM minimal medium; subpopulation (auxotrophy): HU
endpoint.name: z-score of subpopulation abundance
Lab note: record the figure alone, no unit after it.

Given Cc1ccc(-c2cc(C(F)(F)F)nn2-c2ccc(S(N)(=O)=O)cc2)cc1 [Celecoxib] , respond with its z-score of subpopulation abundance.
-0.62

Given NC(=N\CCCCCC/N=C(N)/N=C(\N)Nc1ccc(Cl)cc1)/N=C(\N)Nc1ccc(Cl)cc1 [Chlorhexidine diacetate] , respond with its z-score of subpopulation abundance.
-0.08

###

- Test system: Saccharomyces cerevisiae BY4741 SeMeCo community
- assay.protocol: z-score of subpopulation abundance vs DMSO median, subpopulation auxotrophic for LUM; higher = larger share of this subpopulation than in DMSO controls
- conditions.used: 10 µM; 24 h; SM minimal medium; subpopulation (auxotrophy): LUM
Structures can show the parent of a compound that is named as a salt.
Outcome: rule met for z-score of subpopulation abundance of at least 0.05; rule not met for anything lower.

> print(dat)
                                   compound  assigned.label
1  Cc1[nH]c(=O)c(C#N)cc1-c1ccncc1 [Milrinone]    rule not met

Entry CC/C=C(\C(=O)N[C@@H]1C(=O)N2C(C(=O)OCOC(=O)C(C)(C)C)=C(COC(N)=O)CS[C@H]12)c1csc(N)n1 [Cefcapene Pivoxil Hydrochloride] : is its z-score of subpopulation abundance no less than 0.05?
rule met

Entry CN1CCCN=C1/C=C/c1cccc(O)c1 [Oxantel Pamoate] : is its z-score of subpopulation abundance no less than 0.05?
rule not met

Entry C[n+]1ccccc1/C=N/O [Pralidoxime chloride] : is its z-score of subpopulation abundance no less than 0.05?
rule met

Entry O=c1[nH]cnc2c1ncn2[C@@H]1O[C@H](CO)[C@@H](O)[C@H]1O [Isoprinosine] : is its z-score of subpopulation abundance no less than 0.05?
rule not met

Entry CCOc1ccc2ccccc2c1C(=O)N[C@@H]1C(=O)N2[C@@H]1SC(C)(C)[C@@H]2C(=O)O [Nafcillin Sodium] : is its z-score of subpopulation abundance no less than 0.05?
rule met

Entry O=C(Cn1cnnn1)N[C@@H]1C(=O)N2C(C(=O)O)=C(CSc3nncs3)CS[C@H]12 [Ceftezole] : is its z-score of subpopulation abundance no less than 0.05?
rule met

Entry CCOC(=O)c1ccc(N)cc1 [Benzocaine hydrochloride] : is its z-score of subpopulation abundance no less than 0.05?
rule met

Entry CO/N=C(\C(=O)N[C@@H]1C(=O)N2C(C(=O)[O-])=C(C[n+]3cccc4c3CCC4)CS[C@H]12)c1csc(N)n1 [Cefpirome sulfate] : is its z-score of subpopulation abundance no less than 0.05?
rule met

Entry C[N+](C)(C)CCOC(=O)CCC(=O)OCC[N+](C)(C)C [Succinylcholine Chloride Dihydrate] : is its z-score of subpopulation abundance no less than 0.05?
rule not met

Entry CCOC(=O)C1=C(C)NC(C)=C(C(=O)OC)C1c1cccc([N+](=O)[O-])c1 (stereo unspecified) [Nitrendipine] : is its z-score of subpopulation abundance no less than 0.05?
rule not met

Entry C[C@@H](c1nc(-c2ccc(C#N)cc2)cs1)[C@](O)(Cn1cncn1)c1cc(F)ccc1F [Isavuconazole] : is its z-score of subpopulation abundance no less than 0.05?
rule met

Entry COc1ccc(C(=O)NCc2ccc(OCCN(C)C)cc2)cc1OC [Itopride hydrochloride] : is its z-score of subpopulation abundance no less than 0.05?
rule met

Entry O=C(Nc1ccc(Oc2ccc(Cl)cc2)c(Cl)c1)c1cc(I)cc(I)c1O [Rafoxanide] : is its z-score of subpopulation abundance no less than 0.05?
rule not met

Entry COc1ccc2c(c1)c(CC(=O)OCC(=O)O)c(C)n2C(=O)c1ccc(Cl)cc1 [Acemetacin] : is its z-score of subpopulation abundance no less than 0.05?
rule not met
